Protocol: AUC in human at 600 mg, po BID after 12 hrs
Assay type: ADME, organism-based
Set-up: dose 600 mg, time < 12 hr, route oral
Settings: in vivo

- Compound Structure String: "CC(C)c1nc(CN(C)C(=O)N[C@H](C(=O)N[C@@H](Cc2ccccc2)C[C@H](O)[C@H](Cc2ccccc2)NC(=O)OCc2cncs2)C(C)C)cs1"
  AUC at 12 h: "413 µM·h"

###

Protocol: Drug concentration at steady state in human at 300 mg, po QD after 24 hrs
Format: ADME, organism-based
Settings: in vivo, read-out: Css

- Compound Structure String: "O=C(Nc1cccc2c(=O)cc(-c3nnn[nH]3)oc12)c1ccc(OCCCCc2ccccc2)cc1"
  Unit Tag: "nM"
  concentration at 24 h: 363

###

Study System: ATP-binding cassette sub-family C member 3 (Homo sapiens, UniProt O15438)
Sequence (O15438 whole entry): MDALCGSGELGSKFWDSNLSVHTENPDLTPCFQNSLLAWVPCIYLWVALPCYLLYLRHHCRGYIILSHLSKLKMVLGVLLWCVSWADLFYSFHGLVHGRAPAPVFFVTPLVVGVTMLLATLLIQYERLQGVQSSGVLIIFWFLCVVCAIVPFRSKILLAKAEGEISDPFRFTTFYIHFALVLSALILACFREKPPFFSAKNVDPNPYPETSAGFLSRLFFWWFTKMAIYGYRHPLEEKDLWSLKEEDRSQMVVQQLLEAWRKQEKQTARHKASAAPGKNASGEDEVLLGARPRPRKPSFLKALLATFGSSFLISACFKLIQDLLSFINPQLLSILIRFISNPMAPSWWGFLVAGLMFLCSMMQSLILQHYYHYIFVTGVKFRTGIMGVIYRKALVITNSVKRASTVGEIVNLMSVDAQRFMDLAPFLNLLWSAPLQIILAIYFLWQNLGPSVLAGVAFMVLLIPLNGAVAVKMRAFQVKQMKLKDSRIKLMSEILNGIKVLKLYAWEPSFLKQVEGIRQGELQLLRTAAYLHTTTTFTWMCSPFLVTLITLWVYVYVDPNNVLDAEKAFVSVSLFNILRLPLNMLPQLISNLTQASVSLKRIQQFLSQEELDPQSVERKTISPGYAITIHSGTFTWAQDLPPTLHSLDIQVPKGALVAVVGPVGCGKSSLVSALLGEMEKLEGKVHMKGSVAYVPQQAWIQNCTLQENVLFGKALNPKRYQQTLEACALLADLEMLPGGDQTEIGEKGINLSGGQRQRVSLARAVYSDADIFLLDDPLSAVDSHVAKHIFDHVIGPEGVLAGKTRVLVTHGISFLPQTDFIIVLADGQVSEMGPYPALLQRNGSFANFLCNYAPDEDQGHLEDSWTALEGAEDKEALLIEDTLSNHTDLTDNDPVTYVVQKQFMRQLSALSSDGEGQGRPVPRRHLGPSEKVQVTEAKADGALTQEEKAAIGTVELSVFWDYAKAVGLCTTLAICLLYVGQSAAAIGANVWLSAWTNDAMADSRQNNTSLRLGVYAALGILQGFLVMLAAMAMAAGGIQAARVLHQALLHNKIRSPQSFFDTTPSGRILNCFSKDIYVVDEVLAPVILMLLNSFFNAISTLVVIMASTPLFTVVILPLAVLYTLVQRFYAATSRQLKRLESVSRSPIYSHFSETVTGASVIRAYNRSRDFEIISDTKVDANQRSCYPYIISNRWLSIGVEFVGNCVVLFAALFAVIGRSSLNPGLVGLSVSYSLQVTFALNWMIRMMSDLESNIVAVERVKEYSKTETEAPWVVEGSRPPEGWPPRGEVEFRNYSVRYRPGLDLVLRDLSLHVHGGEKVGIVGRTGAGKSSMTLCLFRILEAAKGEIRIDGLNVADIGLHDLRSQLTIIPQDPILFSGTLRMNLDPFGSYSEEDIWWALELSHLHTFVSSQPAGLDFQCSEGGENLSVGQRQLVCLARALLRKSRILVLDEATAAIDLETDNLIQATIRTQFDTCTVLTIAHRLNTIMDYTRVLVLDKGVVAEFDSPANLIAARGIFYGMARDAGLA
Protocol: Inhibition of human MRP3 overexpressed in Sf9 insect cell membrane vesicles assessed as uptake of [3H]-estradiol-17beta-D-glucuronide in presence of ATP and GSH measured after 10 mins by membrane vesicle transport assay
Quantity: IC50

- Molecule: "O=c1[nH]cc(F)c(=O)[nH]1 [FLUOROURACIL]"
  Measurement: "> 133 µM"
- Molecule: "CC(C)[C@H]1CC[C@H](C(=O)N[C@H](Cc2ccccc2)C(=O)O)CC1 [NATEGLINIDE]"
  Measurement: "104 µM"
- Molecule: "COc1cc2c3cc1Oc1cc(ccc1O)C[C@@H]1c4c(cc(OC)c(O)c4Oc4ccc(cc4)C[C@@H]3N(C)CC2)CC[N+]1(C)C [TUBOCURARINE]"
  Measurement: "> 133 µM"
- Molecule: "CN[C@@H]1C[C@H]2O[C@@](C)([C@@H]1OC)n1c3ccccc3c3c4c(c5c6ccccc6n2c5c31)C(=O)NC4 [STAUROSPORINE]"
  Measurement: "> 133 µM"
- Molecule: "CC(C)NCC(O)COc1cccc2[nH]ccc12 (stereo unspecified) [PINDOLOL]"
  Measurement: "> 133 µM"
- Molecule: "CN1CCN(C(=O)O[C@H]2c3nccnc3C(=O)N2c2ccc(Cl)cn2)CC1 [ESZOPICLONE]"
  Measurement: "> 133 µM"
- Molecule: "C#C[C@@]1(O)CC[C@H]2[C@@H]3CCC4=CC(=O)CC[C@@H]4[C@H]3CC[C@@]21C"
  Measurement: "> 133 µM"
- Molecule: "CN(C)C(=N)N=C(N)N [METFORMIN]"
  Measurement: "> 133 µM"
- Molecule: "CC[C@H](C)C(=O)O[C@H]1C[C@H](O)C=C2C=C[C@H](C)[C@H](CC[C@@H](O)C[C@@H](O)CC(=O)O)[C@H]21 [PRAVASTATIN SODIUM]"
  Measurement: "125 µM"
- Molecule: "COc1cc(C(C)=O)ccc1OCCCN1CCC(c2noc3cc(F)ccc23)CC1 [ILOPERIDONE]"
  Measurement: "> 133 µM"
- Molecule: "CNC1=Nc2ccc(Cl)cc2C(c2ccccc2)=[N+]([O-])C1 [CHLORDIAZEPOXIDE]"
  Measurement: "> 133 µM"
- Molecule: "C/C(=C\\C(=O)OCCCCCCCCC(=O)O)C[C@@H]1OC[C@H](C[C@@H]2O[C@H]2[C@@H](C)[C@H](C)O)[C@@H](O)[C@H]1O [MUPIROCIN]"
  Measurement: "> 133 µM"
- Molecule: "O=C(O)c1cc(/N=N/c2ccc(S(=O)(=O)Nc3ccccn3)cc2)ccc1O [SULFASALAZINE]"
  Measurement: "14.6 µM"
- Molecule: "CCC1=C(C)CN(C(=O)NCCc2ccc(S(=O)(=O)NC(=O)N[C@H]3CC[C@H](C)CC3)cc2)C1=O [GLIMEPIRIDE]"
  Measurement: "6.39 µM"
- Molecule: "C[C@]12C=CC(=O)N[C@@H]1CC[C@@H]1[C@@H]2CC[C@]2(C)[C@@H](C(=O)Nc3cc(C(F)(F)F)ccc3C(F)(F)F)CC[C@@H]12 [DUTASTERIDE]"
  Measurement: "> 133 µM"
- Molecule: "CCCNCC(O)COc1ccccc1C(=O)CCc1ccccc1 (stereo unspecified) [PROPAFENONE]"
  Measurement: "> 133 µM"

###

Protocol: Drug concentration at steady state in human at 15 mg, po QD for 14 days after 24 hrs
Format: ADME, organism-based
Settings: in vivo, read-out: Css

- Compound: "COc1cc(NC(C)CCCN)c2ncccc2c1 (stereo unspecified)"
  concentration at 24 h, nM: 71

###

Protocol: AUC in human at 150 to 600 mg, iv QD after 24 hrs
Format: ADME, organism-based
Settings: in vivo

- Compound Structure String: "CO[C@H]1/C=C/O[C@@]2(C)Oc3c(C)c(O)c4c(O)c(c(/C=N/N5CCN(C)CC5)c(O)c4c3C2=O)NC(=O)/C(C)=C\\C=C\\[C@H](C)[C@H](O)[C@@H](C)[C@@H](O)[C@@H](C)[C@H](OC(C)=O)[C@@H]1C"
  Unit Tag: "µM·h"
  AUC at 24 h: 89.4

###

Protocol: AUC in human at 15 mg, po QD for 14 days after 24 hrs
Assay type: ADME, organism-based
Design: dose 15 mg, time < 24 hr, route oral
Settings: in vivo
Quantity: AUC at 24 h (µM·h)

- Compound: "COc1cc(NC(C)CCCN)c2ncccc2c1 (stereo unspecified) [PRIMAQUINE]"
  Measurement: 1.71

###

Protocol: AUC in patient with advanced phase CML and Ph+ ALL at 100 mg, po BID after 12 hrs
Format: ADME, organism-based
Design: dose 100 mg, time < 12 hr, route oral
Settings: human, in vivo
Quantity: AUC at 12 h (nM·h)

- Compound Structure String: "Cc1nc(Nc2ncc(C(=O)Nc3c(C)cccc3Cl)s2)cc(N2CCN(CCO)CC2)n1.O"
  Quantity: "AUC at 12 h"
  Measurement: 624

###

Protocol: Drug concentration at steady state in human at 10 mg, po QD after 24 hrs
Settings: in vivo

- Molecule: "CCOC(=O)N1CCC(=C2c3ccc(Cl)cc3CCc3cccnc32)CC1 [LORATADINE]"
  concentration at 24 h, nM: 1

###

Protocol: Drug concentration at steady state in human at 60 to 250 mg, po QD after 12 hrs
Type: ADME, organism-based
Settings: in vivo, read-out: Css
Quantity: concentration at 12 h (nM)

- Molecule: "CN1CCN(C2=Nc3ccccc3Oc3ccc(Cl)cc32)CC1.O=C(O)CCC(=O)O [LOXAPINE SUCCINATE]"
  Measurement: 31

###

Protocol: AUC in human at 135 to 175 mg/m2, iv administered as infusion for 3 or 24 hrs measured after 1 hr
Type: ADME, organism-based
Design: time < 1 hr, route intravenous
Settings: in vivo

- Compound Structure String: "CC(=O)O[C@H]1C(=O)[C@@]2(C)[C@H]([C@H](OC(=O)c3ccccc3)[C@]3(O)C[C@H](OC(=O)[C@H](O)[C@@H](NC(=O)c4ccccc4)c4ccccc4)C(C)=C1C3(C)C)[C@]1(OC(C)=O)CO[C@@H]1C[C@@H]2O"
  Unit Tag: "µM·h"
  AUC at 1 h: 14.8

###

Protocol: AUC in human at 50 to 400 mg, po BID after 12 hrs
Type: ADME, organism-based
Settings: in vivo

- Compound Structure String: "C#C[C@]1(O)CC[C@H]2[C@@H]3CCC4=Cc5oncc5C[C@]4(C)[C@H]3CC[C@@]21C"
  AUC at 12 h, µM·h: 5.48

###

Study System: ATP-binding cassette sub-family C member 4 (Homo sapiens, UniProt O15439)
Sequence (O15439 whole entry): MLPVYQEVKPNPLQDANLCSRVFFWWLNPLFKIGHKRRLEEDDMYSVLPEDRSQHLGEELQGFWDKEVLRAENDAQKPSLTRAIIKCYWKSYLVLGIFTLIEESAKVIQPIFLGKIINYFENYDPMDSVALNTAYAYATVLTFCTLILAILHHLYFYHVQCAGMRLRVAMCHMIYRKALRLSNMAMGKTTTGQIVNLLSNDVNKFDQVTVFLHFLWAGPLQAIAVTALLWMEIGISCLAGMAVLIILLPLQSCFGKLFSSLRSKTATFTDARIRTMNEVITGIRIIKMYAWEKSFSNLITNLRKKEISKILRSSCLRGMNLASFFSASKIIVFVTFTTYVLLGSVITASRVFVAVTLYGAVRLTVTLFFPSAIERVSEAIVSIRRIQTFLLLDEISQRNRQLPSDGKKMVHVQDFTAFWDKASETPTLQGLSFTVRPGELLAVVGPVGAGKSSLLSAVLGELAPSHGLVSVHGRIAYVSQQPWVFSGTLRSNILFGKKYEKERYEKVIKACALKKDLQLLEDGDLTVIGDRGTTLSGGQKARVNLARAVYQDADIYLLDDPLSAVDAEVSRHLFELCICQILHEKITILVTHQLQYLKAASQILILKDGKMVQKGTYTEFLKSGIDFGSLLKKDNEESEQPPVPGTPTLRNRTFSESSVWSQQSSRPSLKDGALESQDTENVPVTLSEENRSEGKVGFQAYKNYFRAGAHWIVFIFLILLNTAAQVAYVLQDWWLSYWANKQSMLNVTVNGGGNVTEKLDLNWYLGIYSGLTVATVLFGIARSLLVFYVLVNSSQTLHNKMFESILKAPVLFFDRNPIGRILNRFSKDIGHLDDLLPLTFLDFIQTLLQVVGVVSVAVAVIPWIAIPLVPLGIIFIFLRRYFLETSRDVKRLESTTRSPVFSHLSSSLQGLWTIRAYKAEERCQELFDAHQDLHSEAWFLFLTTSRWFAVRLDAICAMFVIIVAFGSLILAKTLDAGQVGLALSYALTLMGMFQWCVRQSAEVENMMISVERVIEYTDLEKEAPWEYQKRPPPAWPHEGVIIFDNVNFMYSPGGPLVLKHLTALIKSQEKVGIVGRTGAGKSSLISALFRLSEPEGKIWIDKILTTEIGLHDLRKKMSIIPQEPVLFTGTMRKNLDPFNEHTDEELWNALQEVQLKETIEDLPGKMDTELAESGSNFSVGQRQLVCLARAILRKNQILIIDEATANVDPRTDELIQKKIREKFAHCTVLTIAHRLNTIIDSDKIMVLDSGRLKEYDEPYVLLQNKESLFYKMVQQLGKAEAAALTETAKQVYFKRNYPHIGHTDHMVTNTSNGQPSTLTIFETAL
Protocol: Inhibition of human MRP4 overexpressed in Sf9 cell membrane vesicles assessed as uptake of [3H]-estradiol-17beta-D-glucuronide in presence of ATP and GSH measured after 20 mins by membrane vesicle transport assay
pIC50: −log10 of the molar value. Where a name gives a salt, the structure may show the parent alone.

- Compound: "Cc1ccc(-c2nc3ccc(C)cn3c2CC(=O)N(C)C)cc1"
  pIC50: "< 3.88"
- Compound: "CCN(CC)CCOc1ccc(C(=C(Cl)c2ccccc2)c2ccccc2)cc1"
  pIC50: "< 3.88"
- Compound: "COc1cc2nc(N3CCN(C(=O)C4COc5ccccc5O4)CC3)nc(N)c2cc1OC.CS(=O)(=O)O (stereo unspecified) [DOXAZOSIN MESYLATE]"
  pIC50: 5.10
- Compound: "CCN(CC)CC#CCOC(=O)C(O)(c1ccccc1)C1CCCCC1 (stereo unspecified)"
  pIC50: "< 3.88"
- Compound: "OCc1cc(C(O)CNCCCCCCOCCCCc2ccccc2)ccc1O (stereo unspecified) [SALMETEROL XINAFOATE]"
  pIC50: "< 3.88"
- Compound: "C[C@]12C=CC(=O)N[C@@H]1CC[C@@H]1[C@@H]2CC[C@]2(C)[C@@H](C(=O)Nc3cc(C(F)(F)F)ccc3C(F)(F)F)CC[C@@H]12 [DUTASTERIDE]"
  pIC50: "< 3.88"
- Compound: "O=c1c(O)c(-c2ccc(O)c(O)c2)oc2cc(O)cc(O)c12"
  pIC50: 4.68
- Compound: "CC(NC(C)(C)C)C(=O)c1cccc(Cl)c1 (stereo unspecified) [BUPROPION HYDROCHLORIDE]"
  pIC50: "< 3.88"
- Compound: "CC(C)(C)NCC(O)c1ccc(O)c(CO)c1 (stereo unspecified)"
  pIC50: "< 3.88"
- Compound: "CC(C)(C)NC(=O)[C@H]1CC[C@H]2[C@@H]3CC[C@H]4NC(=O)C=C[C@]4(C)[C@H]3CC[C@]12C [FINASTERIDE]"
  pIC50: 4.29
- Compound: "CN(C)c1ccc(O)c2c1C[C@H]1C[C@H]3[C@H](N(C)C)C(O)=C(C(N)=O)C(=O)[C@@]3(O)C(O)=C1C2=O [MINOCYCLINE HYDROCHLORIDE]"
  pIC50: "< 3.88"
- Compound: "Nc1nc(Cl)nc2c1ncn2[C@@H]1O[C@H](CO)[C@@H](O)[C@@H]1F"
  pIC50: "< 3.88"
- Compound: "CC(=O)O[C@]1(C(C)=O)CC[C@H]2[C@@H]3C[C@H](C)C4=CC(=O)CC[C@]4(C)[C@H]3CC[C@@]21C [MEDROXYPROGESTERONE ACETATE]"
  pIC50: 4.65
- Compound: "NCC(CC(=O)O)c1ccc(Cl)cc1 (stereo unspecified)"
  pIC50: "< 3.88"
- Compound: "CS(=O)(=O)N1CCN(Cc2cc3nc(-c4cccc5[nH]ncc45)nc(N4CCOCC4)c3s2)CC1"
  pIC50: 5.57
- Compound: "CC(=O)O[C@@]12CO[C@@H]1C[C@H](O)[C@@]1(C)C(=O)[C@H](O)C3=C(C)[C@@H](OC(=O)[C@H](O)[C@@H](NC(=O)OC(C)(C)C)c4ccccc4)C[C@@](O)([C@@H](OC(=O)c4ccccc4)[C@H]21)C3(C)C [DOCETAXEL ANHYDROUS]"
  pIC50: "< 3.88"
- Compound: "O=C(Nc1cccc2c(=O)cc(-c3nnn[nH]3)oc12)c1ccc(OCCCCc2ccccc2)cc1"
  pIC50: 5.57
- Compound: "Cc1cccc(Nc2cc(Cl)nc(SCC(=O)O)n2)c1C"
  pIC50: 4.35
- Compound: "COc1ccc(C(CN(C)C)C2(O)CCCCC2)cc1 (stereo unspecified)"
  pIC50: "< 3.88"
- Compound: "CCC(=O)NCC[C@@H]1CCc2ccc3c(c21)CCO3"
  pIC50: "< 3.88"
- Compound: "CC[C@]1(O)C[C@@H]2CN(CCc3c([nH]c4ccccc34)[C@@](C(=O)OC)(c3cc4c(cc3OC)N(C)[C@H]3[C@@](O)(C(=O)OC)[C@H](OC(C)=O)[C@]5(CC)C=CCN6CC[C@]43[C@@H]65)C2)C1"
  pIC50: 4.45
- Compound: "O=C(O)c1ccc(-n2nc(-c3ccccc3O)nc2-c2ccccc2O)cc1"
  pIC50: 4.44
- Compound: "Cc1nc2n(c(=O)c1CCN1CCC(c3noc4cc(F)ccc34)CC1)CCCC2"
  pIC50: "< 3.88"
- Compound: "C#C[C@]1(O)CC[C@H]2[C@@H]3CCC4=CC(=O)CC[C@@H]4[C@H]3CC[C@@]21CC"
  pIC50: "< 3.88"
- Compound: "O=C(CCCCCCC(=O)Nc1ccccc1)NO"
  pIC50: "< 3.88"
- Compound: "COc1c(N2CCNC(C)C2)c(F)cc2c(=O)c(C(=O)O)cn(C3CC3)c12 (stereo unspecified)"
  pIC50: "< 3.88"
- Compound: "COc1ccc2[nH]c([S+]([O-])Cc3ncc(C)c(OC)c3C)nc2c1 (stereo unspecified)"
  pIC50: "< 3.88"
- Compound: "COc1cc([C@@H]2c3cc4c(cc3[C@@H](O[C@@H]3O[C@@H]5CO[C@@H](C)O[C@H]5[C@H](O)[C@H]3O)[C@H]3COC(=O)[C@H]23)OCO4)cc(OC)c1OP(=O)(O)O [ETOPOSIDE PHOSPHATE]"
  pIC50: "< 3.88"
- Compound: "CN1CCN2c3ncccc3Cc3ccccc3C2C1 (stereo unspecified)"
  pIC50: "< 3.88"
- Compound: "O=C1Cc2cc(CCN3CCN(c4nsc5ccccc45)CC3)c(Cl)cc2N1 [ZIPRASIDONE MESYLATE]"
  pIC50: "< 3.88"
- Compound: "CCCCC1=NC2(CCCC2)C(=O)N1Cc1ccc(-c2ccccc2-c2nnn[nH]2)cc1"
  pIC50: 4.08
